Reference source: paper PMC12136788

Molecular target: T1, UNK ZnF1-3 (human, UniProt Q9C0B0 31-174)
T1 sequence: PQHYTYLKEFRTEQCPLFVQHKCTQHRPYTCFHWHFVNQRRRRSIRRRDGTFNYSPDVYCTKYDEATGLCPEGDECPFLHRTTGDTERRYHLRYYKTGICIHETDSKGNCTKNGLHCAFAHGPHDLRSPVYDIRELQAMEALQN
Assay: nsRBNS (natural sequence RNA bind-n-seq); RBNS binding buffer (assumed for nsRBNS): 25 mM Tris pH 7.5, 150 mM KCl, 3 mM MgCl2, 0.01% Triton X-100, 500 ug/ml BSA, 20 U/ml SUPERase-In, 4 C; UNK is unkempt and MSI1 is Musashi-1; names of the RNAs are library labels; protein concentration not given here; high values mean tight binding
The full ranking holds about 24,000 sequences; the median of “enrichment r” is about 0.99, and the highest 2% start at about 3.7. The list is a sample of the results.
Catalogue of binders with associated binding signal
Reply numerically in enrichment R, unit not repeated.

Consider the following illustrative entries.
- chr14:102516957:102516958:+_ENSG00000197102_ENST00000360184|hu_mus|motif|central (ssRNA) RNA: GGGAGUUCUACAGUCCGACGAUCCCAUCAACCCUUCCACACCGUUAAGGAUGAAUGAAGGUUAAAUAUUGGGAGUUUCCGGUUCCAGAAAGAGGACUGGAGAAAAGUCUAGCUUUACUCAGUGCACAGAACGGCAACUCCACGCAACAGAGGAUUGAGCAUCA: 1.11
- chr16:94690476:94690477:+_ENSMUSG00000040785_ENSMUST00000117648|mus_mus|motif|central (ssRNA) RNA: GGGAGUUCUACAGUCCGACGAUCAGAAAUGUAAUGUAUUCAAGGUUCACAUGUCUGUAUUUGCCACUGCCUACAGGUCACGGAAAAUACCUAGUUUUUGAAUAGUUUCUAAUACAGUUAGCUUGUUUUCAGGCCACAUUACAACAACAGAGGAUUGAGCAUCA: 0.656

Next up:
So, chr8:87366250:87366251:-_ENSMUSG00000003814_ENSMUST00000003912|mus_mus|FALSE|FALSE (ssRNA) RNA: GGGAGUUCUACAGUCCGACGAUCGAGCAGAUGAAAUCUCAAGCCUAGGGCUUCUCCUCUACACCCCUGUUCCUAGAGUUGGAGGGUAGUGACCAAAAGAUGGAGAAAGGGAGGGACAGAAGGAAAAGAUGUUGAUUCAAAAAUCAACAGAGGAUUGAGCAUCA ? Its binding signal was 1.61
